# %max per entry
- target of assay: Metabotropic glutamate receptor 1 (Homo sapiens)
- Sequence (Q13255 19-1194 limits assumed): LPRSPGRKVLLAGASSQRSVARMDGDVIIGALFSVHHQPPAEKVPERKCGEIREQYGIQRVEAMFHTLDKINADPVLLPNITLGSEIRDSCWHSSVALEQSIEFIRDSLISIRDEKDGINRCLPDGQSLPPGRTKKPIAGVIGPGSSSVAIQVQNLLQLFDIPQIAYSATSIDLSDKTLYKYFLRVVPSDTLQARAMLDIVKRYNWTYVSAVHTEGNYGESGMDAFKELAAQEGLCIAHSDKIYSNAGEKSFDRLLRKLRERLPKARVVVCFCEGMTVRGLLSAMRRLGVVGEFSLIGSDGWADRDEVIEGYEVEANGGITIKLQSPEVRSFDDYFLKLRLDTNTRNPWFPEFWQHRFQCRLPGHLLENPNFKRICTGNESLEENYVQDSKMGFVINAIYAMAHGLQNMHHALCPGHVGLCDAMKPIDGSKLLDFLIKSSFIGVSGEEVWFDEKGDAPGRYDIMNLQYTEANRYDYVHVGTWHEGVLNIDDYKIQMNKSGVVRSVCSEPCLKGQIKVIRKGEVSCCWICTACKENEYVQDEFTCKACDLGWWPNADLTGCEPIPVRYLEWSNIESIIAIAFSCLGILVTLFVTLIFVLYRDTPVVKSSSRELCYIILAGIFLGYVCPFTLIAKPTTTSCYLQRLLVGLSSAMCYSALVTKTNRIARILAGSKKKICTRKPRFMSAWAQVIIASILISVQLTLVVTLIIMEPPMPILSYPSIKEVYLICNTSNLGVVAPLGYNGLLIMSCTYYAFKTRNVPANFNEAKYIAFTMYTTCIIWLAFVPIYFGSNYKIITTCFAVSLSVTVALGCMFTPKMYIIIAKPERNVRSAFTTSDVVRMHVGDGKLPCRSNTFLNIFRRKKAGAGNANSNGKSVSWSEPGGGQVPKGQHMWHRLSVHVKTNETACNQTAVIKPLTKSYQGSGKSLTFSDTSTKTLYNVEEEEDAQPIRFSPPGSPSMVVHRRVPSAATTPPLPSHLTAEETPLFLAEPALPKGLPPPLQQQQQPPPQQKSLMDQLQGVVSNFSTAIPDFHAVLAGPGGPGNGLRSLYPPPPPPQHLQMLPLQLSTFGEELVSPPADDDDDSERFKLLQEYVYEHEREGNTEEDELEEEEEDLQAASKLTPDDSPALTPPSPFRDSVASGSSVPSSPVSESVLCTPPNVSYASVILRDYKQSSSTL
- assay summary: Positive allosteric modulation of human mGluR1 by calcium mobilization assay relative to control
- Type: functional
Unit % implied. Number only.

Worked examples follow.
smiles	%max [%]
Cc1cc(NC(=O)c2occc2C)ccc1N1C(=O)c2cccc(F)c2C1=O	95
Cc1ccoc1C(=O)Nc1ccc(N2C(=O)c3cccc(F)c3C2=O)nc1	93
Cc1ccoc1C(=O)Nc1ccc(N2C(=O)c3cccc(Cl)c3C2=O)c(C(F)(F)F)c1	105
Cc1ccoc1C(=O)Nc1cnc(N2C(=O)c3cccc(C)c3C2=O)nc1	111
Cc1ccoc1C(=O)Nc1cnc(N2C(=O)c3cccc(F)c3C2=O)nc1	99
Cc1ccoc1C(=O)Nc1ccc(N2C(=O)c3ccccc3C2=O)c2ccccc12	99
Cc1ccoc1C(=O)Nc1ccc(N2C(=O)c3cccc(C)c3C2=O)c2ccccc12	88
Cc1ccoc1C(=O)Nc1ccc(N2C(=O)c3cccc(Cl)c3C2=O)c(F)c1	100

Which measured %max value corresponds to Cc1cc(NC(=O)c2occc2C)ccc1N1C(=O)c2ccccc2C1=O ? 105

Same read-out for Cc1cc(NC(=O)c2occc2C)ccc1N1C(=O)c2cccc(Cl)c2C1=O ? 117

Item: COc1cc(NC(=O)c2occc2C)ccc1N1C(=O)c2cccc(Cl)c2C1=O 93

These data points were gathered from ChEMBL document CHEMBL3632577.
